Hey, just so you know, these numbers are from the supplement of paper PMC7877785.

List of self-splicing fitness (ln) values.
- ASSAY TEXT: self-splicing fitness, log relative to wild type (ln ratio); higher = more splicing; Tetrahymena group I intron in knt gene, E. coli kanamycin selection, DiMSum; sequences stand for … in CUCUCU…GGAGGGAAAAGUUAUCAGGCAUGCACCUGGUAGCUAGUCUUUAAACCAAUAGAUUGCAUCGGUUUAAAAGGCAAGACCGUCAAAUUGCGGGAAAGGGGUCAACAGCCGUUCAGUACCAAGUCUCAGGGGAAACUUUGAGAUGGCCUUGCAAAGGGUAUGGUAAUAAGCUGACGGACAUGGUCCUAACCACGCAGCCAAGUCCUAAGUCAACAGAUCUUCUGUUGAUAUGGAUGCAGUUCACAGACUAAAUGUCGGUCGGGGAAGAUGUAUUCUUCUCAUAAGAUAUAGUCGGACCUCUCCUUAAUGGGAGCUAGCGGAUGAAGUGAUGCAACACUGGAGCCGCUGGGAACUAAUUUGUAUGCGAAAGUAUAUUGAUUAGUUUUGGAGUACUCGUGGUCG;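 also: selection with 25 µg/mL kanamycin versus none on LB agar overnight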
- MEASUREMENT SETUP: 30 °C

# POLYMER SEQUENCE, self-splicing fitness (ln)
rows = [
    ("ACUGAGCAAUAUUACGGAGU", -2.8),
    ("GAUGAGCAAUAUUACGGGGG", -4.46),
    ("UAACAGCAAUAUUACGUGCG", -0.551),
    ("CGAUAGCAAUAUUACGAAUG", -0.898),
    ("GAGUAGCAAUAUUACGCCUC", -2.22),
    ("CGCGAGCAAUAUUACGGGUC", -3.27),
    ("CCGGAGCAAUAUUACGGUCU", -2.42),
    ("AGACAGCAAUAUUACGCUAA", -2.17),
    ("CAUCAGCAAUAUUACGUUAA", -2.79),
    ("UGUCAGCAAUAUUACGCCCC", -0.691),
    ("CUUAAGCAAUAUUACGUUCA", -2.9),
    ("GUACAGCAAUAUUACGGGAA", -3.59),
    ("GCUGAGCAAUAUUACGUCAG", -3.35),
    ("AUAAAGCAAUAUUACGUCCA", -0.469),
    ("CCCCAGCAAUAUUACGAUGU", -4.53),
    ("GACUAGCAAUAUUACGAUGA", -0.535),
]
